- Tested on: Subjects With Active Crohn's Disease With Evidence of Mucosal Ulceration
- Assay: Study 3 - Creatinine levels
- Type: in vivo, human
- Run Parameters: 10 weeks results; 200 mg q.d.; week 6
Readout Kind: Study 3 - Creatinine Mean CFB (µM)

- Molecule: "O=C(Nc1nc2cccc(-c3ccc(CN4CCS(=O)(=O)CC4)cc3)n2n1)C1CC1 [Compound 1]"
  Target Of Assay: "Subjects With Active Crohn's Disease With Evidence of Mucosal Ulceration"
  Value Observed: 2.81

----------
- Test system: Subjects With Active Crohn's Disease With Evidence of Mucosal Ulceration
- Assay: Study 3 - Creatinine levels
- Format: in vivo, human
- Run Parameters: 10 weeks results; 200 mg q.d.; week 2

- Smiles Code: "O=C(Nc1nc2cccc(-c3ccc(CN4CCS(=O)(=O)CC4)cc3)n2n1)C1CC1"
  Study 3 - Creatinine Mean CFB [µM]: 2.44
